- assaySystem: T1, recombinant human FGF23 (R179Q) (human, UniProt Q9GZV9 25-251)
- T1 construct: also called rhFGF23(R179Q); hFGF23(R179Q)
- T1 sequence (looked up): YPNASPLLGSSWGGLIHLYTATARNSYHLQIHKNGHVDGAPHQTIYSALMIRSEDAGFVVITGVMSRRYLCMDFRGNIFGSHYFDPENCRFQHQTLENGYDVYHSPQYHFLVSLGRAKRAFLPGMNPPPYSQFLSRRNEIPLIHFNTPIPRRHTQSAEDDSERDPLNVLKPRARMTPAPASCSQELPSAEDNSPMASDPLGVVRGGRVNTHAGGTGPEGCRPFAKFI
- methodSummary: SPR, antibody captured on hIgG chip, rhFGF23(R179Q) analyte
experimentalReadout: kon (M⁻¹ s⁻¹)
Reply with just the number (in M⁻¹ s⁻¹).

binder	kon [M⁻¹ s⁻¹]
UGX161 (antibody, human IgG1, kappa, V domains shown, also called HC:S59I) VH: QVQLVQSGAEVKKPGASVKVSCKASGYTFTNHYMHWVRQAPGQGLEWMGIINPISGSTINAQKFQGRVTMTRDTSTSTVYMELSSLRSEDTAVYYCARDIVDAFDFWGQGTMVTVSS VL: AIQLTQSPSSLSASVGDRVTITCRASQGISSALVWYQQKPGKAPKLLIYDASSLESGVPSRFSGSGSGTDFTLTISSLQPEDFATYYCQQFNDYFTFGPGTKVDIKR	4.38e+06

Now for another entry.
Data request: What value of kon has been recorded for this entry: UGX205 (antibody, human IgG1, kappa, V domains shown, also called HC:S59E, LC:Y94D; S59E/Y94D) VH: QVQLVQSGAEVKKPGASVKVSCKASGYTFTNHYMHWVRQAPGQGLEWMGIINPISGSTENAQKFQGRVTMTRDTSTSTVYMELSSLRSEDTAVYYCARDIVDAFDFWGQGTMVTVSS VL: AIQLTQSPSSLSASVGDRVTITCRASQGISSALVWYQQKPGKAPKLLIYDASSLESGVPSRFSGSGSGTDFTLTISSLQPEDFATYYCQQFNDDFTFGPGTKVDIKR
Data returned: 1.53e+07
